B1: LINE1-full (parent)
chain: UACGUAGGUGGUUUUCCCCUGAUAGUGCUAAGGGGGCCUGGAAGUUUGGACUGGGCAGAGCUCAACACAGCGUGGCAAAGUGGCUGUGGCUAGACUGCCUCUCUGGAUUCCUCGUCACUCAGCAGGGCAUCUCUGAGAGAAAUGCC

Variants of: B1
Experiment: self-cleavage, relative activity (ratio to wild type); higher = more cleavage; in vitro, sequencing; the parent is a self-cleaving ribozyme
endpoint: self-cleavage
The reply should be a number, written without any unit.

## Input Which self-cleavage is listed for C19U A69G ?
## Output 0.77

Next:
## Input Which self-cleavage is listed for G49A U52C ?
## Output 1.35
